Give pKa for every item shown.
conditions: acidic group

Record Cc1cccc(C[N+](=O)[O-])c1 . Reported pKa: 6.97

Record CC(C)(C)CCCC(=O)O . Reported pKa: 4.88

Record O/C(=C\c1ccccc1)c1ccco1 . Reported pKa: 8.5

Record CC/C(=N/O)C(C)=O . Reported pKa: 9.38

Record [O-]c1ccc(O)cc1 . Reported pKa: 11.6

Record C[n+]1cccc(C(=O)O)c1 . Reported pKa: 2.29

Record O=c1ccccc(O)c1[O-] . Reported pKa: 11.5

Record CC(C)CN(CC(C)C)C(=S)S . Reported pKa: 3.4

Record O=c1ccc(Br)ccc1O . Reported pKa: 6.32

Record [NH3+][C@H]1CONC1=O . Reported pKa: 4.54

Record Cn1c(CCl)nc2c(O)ccc(O)c21 . Reported pKa: 8.4

Record CC(C)c1cccc(=O)c(O)c1 . Reported pKa: 7.22

Record O=C(O)C1CCc2ccccc2O1 (configuration not stated) . Reported pKa: 3.38

Record Oc1ccccc1-c1ccccc1O . Reported pKa: 7.5

Record O=C(O)CCc1nnnn1-c1ccccc1 . Reported pKa: 5

Record CC(O)[C@@H]1C[NH2+][C@H](C(=O)O)[C@H]1CC(=O)O (some centres not stated) . Reported pKa: 2.94

Record CCC(C)(O)C(C(=O)O)c1ccc(-c2ccccc2)cc1 (configuration not stated) . Reported pKa: 3.41

Record O=C(O)C[Se]c1ccccc1[N+](=O)[O-] . Reported pKa: 3.45

Record OB(O)CCc1ccccc1 . Reported pKa: 10

Record O=C(O)c1c(Br)cccc1[N+](=O)[O-] . Reported pKa: 1.37

Record CC[NH+](CC)CCCNC(=O)/C=N/O . Reported pKa: 8.75

Record CN(C)c1cccc[n+]1O . Reported pKa: 2.27

Record Cc1cc(Br)ccc1C(=O)O . Reported pKa: 3.77

Record Oc1c2c(nn1-c1ccccc1)CCCC2 . Reported pKa: 11.4

Record O=C(O)C[N+](=O)[O-] . Reported pKa: 1.63

Record CNc1nc(O)[n+]([C@@H]2C[C@@H](O)[C@H](CO)O2)cc1C . Reported pKa: 4.04

Record Cn1c(C(=O)O)cc(=O)n(C)c1=O . Reported pKa: 0.8

Record Cc1ccc(OC(O)(CBr)c2ccccc2)cc1 (configuration not stated) . Reported pKa: 11.2

Record Cc1[nH]c(C(=O)[O-])c(C(=O)O)[nH+]1 . Reported pKa: 4.54

Record O=C1NC(=O)C2CCC12 (configuration not stated) . Reported pKa: 9.63

Record Oc1cccc(O)c1 . Reported pKa: 9.56

Record Cc1ccc(O)c(O)c1 . Reported pKa: 9.62

----------
conditions: acidic group
Give pKa for every item shown.
Write the number on its own, no unit after it.

Record CN1C(=O)NCc2[nH]cnc21 . Reported pKa: 11.1

Record Cc1nc2ncncc2[nH]1 . Reported pKa: 9.37

Record O=[N+]([O-])c1cc(Br)ccc1O . Reported pKa: 6.36

Record C#CCC(=O)O . Reported pKa: 3.31

Record COc1ccc(NC(=S)c2ccc(OC)cc2)cc1 . Reported pKa: 11.8

Record CC1=CC(=Nc2ccc(O)cc2)C=C(C)C1=O . Reported pKa: 8.9

Record Nc1ccc[nH+]c1C(=O)O . Reported pKa: 1.33

Record Cc1ccccc1[N+](C)(C)O . Reported pKa: 4.78
